Tested on: HUVECs
Assay: Tube formation (tubulogenesis) assay in HUVECs, 18 h
Assay type: cell-based, human
Conditions: Homo sapiens, HUVEC, 18 h, HUVECs, top concentration 100.00 µM, read-out: huvec.mtl.18hr POD
Structures can show the parent of a compound that is named as a salt.
measured.attribute: minimal effective concentration (µM)

| molecule | target.desc | observed.result |
| --- | --- | --- |
| Clc1cccc(-c2cccc(Cl)c2)c1 | HUVECs | 100 |
| Clc1ccc(Cl)c(-c2cc(Cl)ccc2Cl)c1 | HUVECs | 100 |
| Oc1cc(Cl)cc(-c2cccc(Cl)c2)c1 | HUVECs | 6.98 |
| Oc1ccc(-c2ccc(Cl)cc2)cc1 | HUVECs | 1.21 |
| COc1ccc(-c2ccc(Cl)cc2)cc1 | HUVECs | 7.13 |
| O=S(=O)(O)Oc1cc(-c2ccccc2)ccc1Cl [3-yl PCB 3 sulfate] | HUVECs | 11.5 |
| O=S(=O)(O)Oc1cc(Cl)ccc1-c1ccccc1 [2-yl PCB 3 sulfate] | HUVECs | 10.7 |
| Oc1ccc(O)c(-c2ccc(Cl)cc2)c1 | HUVECs | 1.26 |
| Clc1ccc(-c2ccccc2)cc1 | HUVECs | 25.3 |
| O=S(=O)(O)Oc1cccc(-c2ccc(Cl)cc2)c1 [3'-yl PCB 3 sulfate] | HUVECs | 15.5 |

---

System: iCell cardiomyocytes (human iPSC-derived cardiomyocytes)
Assay: Intracellular Ca2+ flux / beating parameters in iCell cardiomyocytes (FLIPR tetra), 90 min or 24 h
Type: cell-based
Settings: Homo sapiens, Cardiomyocyte, 1.5 h, 0.01 µM; 0.00 µM = 100.00; read-out: cm.amp.avg.90min
Structures can show the parent of a compound that is named as a salt.
List of activity at 0.01 µM values.
measured.attribute: activity at 0.01 µM (%)

| compound | unit.label | observed.result |
| --- | --- | --- |
| COc1ccc(-c2cccc(Cl)c2)cc1Cl [4-OMe PCB11] | % | 85.7 |
| Oc1ccc(-c2ccc(Cl)cc2)cc1 [4'-OH PCB3] | % | 95.4 |
| O=S(=O)(O)Oc1ccc(-c2ccc(Cl)cc2)cc1 [4'-yl PCB 3 sulfate] | % | 91 |
| O=C1C=CC(=O)C(c2ccc(Cl)cc2)=C1 [4-Cl-BQ, 2-(4-Chlorophenyl)benzo-2,5-quinone] | % | 91.7 |
| Oc1cccc(-c2ccc(Cl)cc2)c1 [3'-OH PCB3] | % | 95.3 |
| Oc1cc(Cl)cc(-c2cccc(Cl)c2)c1 [5-OH PCB 11] | % | 101 |
| Clc1cccc(-c2cccc(Cl)c2)c1 [PCB11] | % | 99.2 |
| COc1ccc(-c2ccc(Cl)cc2)cc1 [4'-OMe PCB3] | % | 96.9 |

---

Test system: iCell cardiomyocytes (human iPSC-derived cardiomyocytes)
Experiment: Intracellular Ca2+ flux / beating parameters in iCell cardiomyocytes (FLIPR tetra), 90 min or 24 h
Assay type: cell-based
Conditions: Homo sapiens, Cardiomyocyte, 24 h, 0.10 µM; 24hrs; 0.00 µM = 100.00; read-out: cm.spacing.cv.24hrs
Measured activity at 0.1 µM, listed per entry for reference.
measured.attribute: activity at 0.1 µM (%)

| compound.structure | target.desc | unit.label | observed.result |
| --- | --- | --- | --- |
| Clc1ccc(Cl)c(-c2c(Cl)ccc(Cl)c2Cl)c1 | iCell cardiomyocytes (human iPSC-derived cardiomyocytes) | % | 137 |
| Clc1ccc(Cl)c(-c2cc(Cl)ccc2Cl)c1 | iCell cardiomyocytes (human iPSC-derived cardiomyocytes) | % | 89.3 |
| COc1cc(Cl)c(-c2cc(Cl)ccc2Cl)cc1Cl | iCell cardiomyocytes (human iPSC-derived cardiomyocytes) | % | 108 |
| Oc1cc(Cl)c(-c2cc(Cl)ccc2Cl)cc1Cl | iCell cardiomyocytes (human iPSC-derived cardiomyocytes) | % | 94 |

src = paper PMC7377239
